# Lookup of reported pEC50 keyed by entry
# target.entity: Human GPR120 (Homo sapiens, UniProt Q5NUL3)
# Construct: Ga16 (promiscuous G protein) fusion partner; expressed in transfected cells
# test: FLIPR assay: agonist-induced calcium mobilization in HEK293-GPR120-Ga16 cells
# Assay type: cell-based
# run.parameters: GPR120 activation, calcium mobilization, HEK293-GPR120-Ga16 cells; read-out: EC50 Range
pEC50: −log10 of the molar value.

{"columns": ["molecule", "target.entity", "pEC50"],
 "data": [
  ["CCn1c(-c2ccc3ccccc3c2)cs/c1=N\\c1ccc(C(=O)O)cc1 [Compound 41]", "Human GPR120 (Homo sapiens, UniProt Q5NUL3)", "6.30 to 6.60"],
  ["CCC(C)n1c(-c2ccccc2)cs/c1=N\\c1ccc(C(=O)O)cc1 (stereo not shown) [Compound 22]", "Human GPR120 (Homo sapiens, UniProt Q5NUL3)", "6.00 to 6.30"],
  ["COc1cccc(-c2noc(-c3cccc(C(=O)O)c3)n2)c1 [Compound 53]", "Human GPR120 (Homo sapiens, UniProt Q5NUL3)", "6.00 to 6.30"],
  ["O=C(O)c1ccc(/N=c2\\scc(-c3ccccc3)n2CC2CC2)cc1 [Compound 21]", "Human GPR120 (Homo sapiens, UniProt Q5NUL3)", "6.30 to 6.60"],
  ["CCn1c(-c2ccccc2OC(F)(F)F)cs/c1=N\\c1ccc(C(=O)O)cc1 [Compound 12]", "Human GPR120 (Homo sapiens, UniProt Q5NUL3)", "6.30 to 6.60"],
  ["CCn1c(-c2cccc(OC)c2)cs/c1=N\\c1ccc(S(=O)(=O)O)cc1 [Compound 29]", "Human GPR120 (Homo sapiens, UniProt Q5NUL3)", "6.30 to 6.60"]
]}

Prompt: // lookup pEC50 | system=Human GPR120 (Homo sapiens, UniProt Q5NUL3) | key= CCn1c(-c2ccccc2[N+](=O)[O-])cs/c1=N\c1ccc(C(=O)O)cc1 [Compound 44]
Completion: 6.00 to 6.30

Prompt: For the record CCn1c(-c2ccccc2C(F)(F)F)cs/c1=N\c1ccc(C(=O)O)cc1 [Compound 11] , what value of pEC50 is listed for Human GPR120 (Homo sapiens, UniProt Q5NUL3)?
Completion: 6.60 to 7.00

Prompt: What value of pEC50 on Human GPR120 (Homo sapiens, UniProt Q5NUL3) does O=C(O)c1ccc(/N=c2\scc(-c3ccccc3)n2CC(F)(F)F)cc1 [Compound 24] have?
Completion: 6.60 to 7.00

Prompt: Request - read-out pEC50 | tested on Human GPR120 (Homo sapiens, UniProt Q5NUL3) | molecule CCc1ccc(-c2cn(-c3ccc(Cl)c(C(=O)O)c3)nn2)cc1 [Compound 68]
Completion: < 5.30

Prompt: Record lookup: for Human GPR120 (Homo sapiens, UniProt Q5NUL3), what pEC50 belongs to CCn1c(-c2ccccc2)cs/c1=N\c1ccc(C(=O)O)c(Br)c1 [Compound 15] ?
Completion: 6.60 to 7.00

Prompt: Give pEC50 (Human GPR120 (Homo sapiens, UniProt Q5NUL3)) of the following molecule: COc1ccc(-c2cn(-c3cccc(C(=O)O)c3)nn2)cc1 [Compound 55]
Completion: 5.30 to 6.00

Prompt: Give recorded pEC50 with Human GPR120 (Homo sapiens, UniProt Q5NUL3) for the following molecule: CCn1c(-c2ccccc2)cs/c1=N\c1c(F)c(F)c(C(=O)O)c(F)c1F [Compound 25]
Completion: 6.30 to 6.60

Prompt: Hi! What's the reported pEC50 for CCc1ccc(-c2cn(-c3cccc(C(=O)O)c3)nn2)cc1 [Compound 61] on Human GPR120 (Homo sapiens, UniProt Q5NUL3)?
Completion: 6.00 to 6.30

Prompt: Which pEC50 is reported with Human GPR120 (Homo sapiens, UniProt Q5NUL3) for this entry: CC(C)n1c(-c2ccccc2)cs/c1=N\c1ccc(C(=O)O)cc1 [Compound 17] ?
Completion: 6.60 to 7.00

====

# target.entity: Human GPR120 (Homo sapiens, UniProt Q5NUL3)
# Construct: Ga16 (promiscuous G protein) fusion partner; expressed in transfected cells
# test: FLIPR assay: agonist-induced calcium mobilization in HEK293-GPR120-Ga16 cells
# Assay type: cell-based
# run.parameters: GPR120 activation, calcium mobilization, HEK293-GPR120-Ga16 cells; read-out: EC50
property.name: EC50 (nM)

{"columns": ["given.smiles", "test.value"],
 "data": [
  ["COc1ccc(-c2noc(-c3cccc(C(=O)O)c3)n2)cc1", 184]
]}

1 = CCn1c(-c2ccccc2Oc2ccccc2)cs/c1=N\c1ccc(C(=O)O)cc1
2 = CCn1c(-c2cc(Cl)ccc2Cl)cs/c1=N\c1ccc(S(=O)(=O)O)cc1
Prompt: Which value of EC50 is numerically greater: that of 1 or that of 2 ? Indicate which entry you chose by stating its label.
Completion: 1

====

# target.entity: Human GPR120 (Homo sapiens, UniProt Q5NUL3)
# Construct: Ga16 (promiscuous G protein) fusion partner; expressed in transfected cells
# Sequence (Q5NUL3 with tags, fused parts or gaps): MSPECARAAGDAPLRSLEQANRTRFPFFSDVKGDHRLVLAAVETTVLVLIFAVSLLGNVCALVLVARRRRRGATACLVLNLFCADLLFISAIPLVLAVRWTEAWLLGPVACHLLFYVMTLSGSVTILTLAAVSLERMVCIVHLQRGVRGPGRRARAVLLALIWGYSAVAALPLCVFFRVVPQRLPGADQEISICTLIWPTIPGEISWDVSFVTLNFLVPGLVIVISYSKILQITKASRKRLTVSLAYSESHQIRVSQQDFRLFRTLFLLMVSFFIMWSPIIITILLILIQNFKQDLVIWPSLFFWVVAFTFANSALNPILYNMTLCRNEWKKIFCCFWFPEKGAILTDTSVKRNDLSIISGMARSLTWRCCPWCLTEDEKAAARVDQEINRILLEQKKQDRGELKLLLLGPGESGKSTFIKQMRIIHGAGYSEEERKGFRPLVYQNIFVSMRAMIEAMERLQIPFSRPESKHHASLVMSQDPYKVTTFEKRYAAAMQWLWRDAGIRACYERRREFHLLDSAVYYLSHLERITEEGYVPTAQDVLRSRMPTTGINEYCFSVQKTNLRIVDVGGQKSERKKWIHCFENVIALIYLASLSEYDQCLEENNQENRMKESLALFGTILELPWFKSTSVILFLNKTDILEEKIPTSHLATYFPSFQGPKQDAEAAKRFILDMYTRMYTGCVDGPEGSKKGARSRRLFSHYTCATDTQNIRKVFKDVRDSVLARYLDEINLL
# test: FLIPR assay: agonist-induced calcium mobilization in HEK293-GPR120-Ga16 cells
# Assay type: cell-based
# run.parameters: GPR120 activation, calcium mobilization, HEK293-GPR120-Ga16 cells; read-out: EC50 Range
pEC50: −log10 of the molar value.
property.name: pEC50

Example entries and their recorded answers appear below.
{"columns": ["molecule", "pEC50"],
 "data": [
  ["CCn1c(-c2cccc(OCc3ccccc3)c2)cs/c1=N\\c1ccc(C(=O)O)cc1 [Compound 26]", "6.00 to 6.30"],
  ["CCn1c(-c2cccc(Br)c2)cs/c1=N\\c1ccc(S(=O)(=O)O)cc1 [Compound 5]", "6.60 to 7.00"],
  ["O=C(O)c1cccc(-n2cc(-c3ccc(Br)cc3)nn2)c1 [Compound 63]", "5.30 to 6.00"]
]}

// moving on: another record for pEC50
Prompt: # query: pEC50 of entry CCn1c(-c2cc(Br)ccc2O)cs/c1=N\c1ccc(C(=O)O)cc1 [Compound 50]
Completion: 6.60 to 7.00
